Answer each item with its documented pIC50.
EXPERIMENTAL SYSTEM: human HSV DNA polymerase UL30 (Human herpesvirus 1 (strain 17) (HHV-1) (Human herpes simplex virus 1))
ASSAY NOTES: biochemical
RECORDED CONDITIONS: 625 pM HSV polymerase, 20 minutes at room temperature; read-out: HSV-polymerase Biochemical IC50
Give bare numbers, as −log10 of the molar value.

MOLECULE	pIC50
O=C(NCc1ccc(Cl)cc1)c1nn(CCO)c2c1CCN(CC1(S(=O)(=O)C3CC3)CC1)C2=O	7.30
Cn1nc(C(=O)NCc2ccc(Cl)cc2)c2c1C(=O)N(CC1(S(=O)(=O)C(C)(CN)CO)CC1)CC2 (single isomer, unassigned) [Example 187]	7.07
CC(C)(CO)S(=O)(=O)C1(CN2CCc3c(C(=O)NCc4ccc(C#N)cc4)n[nH]c3C2=O)CC1	7.43

List reported pIC50 for each of these molecules:
1. CNCC(O)C(C)(C)S(=O)(=O)C1(CN2CCc3c(C(=O)NCc4ccc(Cl)cc4)nn(C)c3C2=O)CC1 (single isomer, unassigned) [Example 204]
2. CN(C(CO)CO)S(=O)(=O)C1(CN2CCc3c(C(=O)NCc4ccc(C#N)cc4)nn(C)c3C2=O)CC1
3. Cn1nc(C(=O)NCc2ccc(C#N)cc2)c2c1C(=O)N(CC1(S(=O)(=O)Nc3cc(C4CC4)on3)CC1)CC2
4. Cn1nc(C(=O)NCc2ccc(C#N)c(F)c2)c2c1C(=O)N(CC1(S(=O)(=O)C3CC3)CC1)CC2
5. Cn1nc(C(=O)NCc2ccc(Cl)cc2)c2c1C(=O)N(CC1(S(=O)(=O)C(C)(CN)CO)CC1)CC2 (single isomer, unassigned) [Example 188]
6. CNS(=O)(=O)C1(CN2CCc3c(C(=O)NCc4ccc(Cl)cc4)nn(C)c3C2=O)CC1

**Result**
1: 7.43; 2: 6.19; 3: 6.98; 4: 7.35; 5: 6.97; 6: 6.93

Please report pIC50 for every entry that follows.
1. Cn1nc(-c2noc(Cc3ccc(C#N)cc3)n2)c2c1C(=O)N(CC1(S(=O)(=O)C3CC3)CC1)CC2
2. Cn1nc(C(=O)NCc2ccc(C#N)cc2)c2c1C(=O)N(CC1(S(=O)(=O)C(C)(C)[C@@H](O)CO)CC1)CC2

**Result**
1. 7.54
2. 7.52

// for each molecule below, give its pIC50
1. CN(C)CC(=O)NCC(C)(C)S(=O)(=O)C1(CN2CCc3c(C(=O)NCc4ccc(C#N)cc4)nn(C)c3C2=O)CC1
2. C[C@H](N)C(=O)NCC(C)(C)S(=O)(=O)C1(CN2CCc3c(C(=O)NCc4ccc(C#N)cc4)nn(C)c3C2=O)CC1
3. N#Cc1ccc(CNC(=O)c2nn(C3CC3)c3c2CCN(CC2(S(=O)(=O)C4CC4)CC2)C3=O)cc1

**Result**
[6.69, 6.91, 7.00]
